System: DNA gyrase (Escherichia coli)
Assay Details: Inhibition of supercoiling activity of DNA gyrase in Escherichia coli
Measured Quantity: IC50 (µM)

I: CC(c1ccc2c(ccc3ccccc32)c1)N(O)C(=O)c1ccccc1-c1ccccc1C(=O)O (stereo unspecified)
II: CC(c1ccc2c(c1)Nc1ccccc1S2)N(O)C(=O)c1ccccc1-c1ccccc1C(=O)O (stereo unspecified)
III: CC(c1ccc2oc(-c3ccccc3)cc2c1)N(O)C(=O)c1ccccc1-c1ccccc1C(=O)O (stereo unspecified)
Sort the molecules on IC50; start with the lowest figure. Put the labels in the requested order and write them down.
III, I, II

* * *

System: DNA gyrase (Escherichia coli)
Assay Details: Inhibition of supercoiling activity of DNA gyrase in Escherichia coli
# reported IC50; entries follow

Recorded results for 2 compounds are shown here.
Compound | System | Readout Value
CC(c1ccc(N2CCN(c3ccccc3)CC2)cc1)N(O)C(=O)c1ccccc1-c1ccccc1C(=O)O (stereo not drawn) | DNA gyrase (Escherichia coli) | > 958 µM
COc1cc(C(C)N(O)C(=O)c2ccccc2-c2ccccc2C(=O)O)cc(OC)c1OC (stereo not drawn) | DNA gyrase (Escherichia coli) | > 1100 µM

Turning now to a further record.
Param item = CC(c1ccccc1)N(O)C(=O)c1ccccc1-c1ccccc1C(=O)O (stereo not drawn) ; retrieve measured IC50.
> 1380 µM
